# Tested on: HBeAg
# method_notes: PHH HBV natural infection assay, HBeAg (alphalisa)
# Assay type: cell-based
# condition_description: read-out: HbeAg IC50; HBV-infected primary human hepatocytes, supernatant, compound medium refreshed two times with 72-hour interval
pIC50: −log10 of the molar value.
assay_metric: pIC50

{"compound": "O=C(NC1CC2(C1)CC(c1nc3cc(Cl)ccc3o1)C2)c1ccc([S+]([O-])CC2CC2)o1 (single isomer, unassigned) [Example 19-c]", "system_name": "HBeAg", "measured_result": 5.71}
{"compound": "CS(=N)(=O)c1ccc(C(=O)NC2CC3(C2)CC(c2nc4cc(Cl)ccc4o2)C3)o1 (single isomer, unassigned) [Example 52-b]", "system_name": "HBeAg", "measured_result": 6.05}
{"compound": "NS(=O)(=O)c1ccc(C(=O)NC2CC3(C2)CC(c2nc4cc(Cl)ccc4o2)C3)o1 (single isomer, unassigned) [Example 29-a]", "system_name": "HBeAg", "measured_result": 5.64}
{"compound": "N=S(=O)(c1ccc(C(=O)NC2CC3(C2)CC(c2nc4cc(Cl)ccc4o2)C3)o1)C1CC1 (single isomer, unassigned) [Example 53-d]", "system_name": "HBeAg", "measured_result": 5.87}
